Experimental system: UniProt:P30613
Protocol text: PKR (wild type) enzyme AC50 assay, LDH/NADH-coupled, absorbance at 340 nm
Assay type: biochemical
Recorded conditions: Table 2; enzyme assay; read-out: PKR WT AC50
Listing: AC50 of selected compounds

{"Compound": "Cn1c2nc(Cc3cc[nH]n3)sc2c2cnn(Cc3cccc(C(N)=O)c3)c(=O)c21", "AC50": "< 300 nM"}
{"Compound": "Cn1c2nc(Cc3csc(CO)n3)sc2c2cnn(Cc3cccc4[nH]ncc34)c(=O)c21", "AC50": "< 300 nM"}
{"Compound": "Cc1nc2c(s1)c1cnn(Cc3ccc(CO)cc3)c(=O)c1n2C", "AC50": "> 800 nM"}
{"Compound": "Cn1c2nc(Cc3cn[nH]c3)sc2c2cnn(Cc3cccc4[nH]ncc34)c(=O)c21", "AC50": "< 300 nM"}
{"Compound": "Cc1nc2c(s1)c1cnn(Cc3ccc4nn[nH]c4c3)c(=O)c1n2C", "AC50": "> 800 nM"}
{"Compound": "Cn1c2nc([S+](C)[O-])sc2c2cnn(Cc3ccc4ccccc4n3)c(=O)c21 (stereo not drawn)", "AC50": "< 300 nM"}
{"Compound": "COc1cccc(Cn2ncc3c4sc(CO)nc4n(C)c3c2=O)c1", "AC50": "< 300 nM"}
{"Compound": "COC(=O)C(c1cc[nH]n1)c1nc2c(s1)c1cnn(Cc3cccc4[nH]ncc34)c(=O)c1n2C (stereo not drawn)", "AC50": "> 800 nM"}
{"Compound": "Cn1c2nc(Cc3cccc(CO)c3)sc2c2cnn(Cc3cccc4[nH]ncc34)c(=O)c21", "AC50": "< 300 nM"}

====

Experimental system: PKR K410E (Homo sapiens, UniProt P30613, K410E)
Sequence (P30613 whole entry K410E): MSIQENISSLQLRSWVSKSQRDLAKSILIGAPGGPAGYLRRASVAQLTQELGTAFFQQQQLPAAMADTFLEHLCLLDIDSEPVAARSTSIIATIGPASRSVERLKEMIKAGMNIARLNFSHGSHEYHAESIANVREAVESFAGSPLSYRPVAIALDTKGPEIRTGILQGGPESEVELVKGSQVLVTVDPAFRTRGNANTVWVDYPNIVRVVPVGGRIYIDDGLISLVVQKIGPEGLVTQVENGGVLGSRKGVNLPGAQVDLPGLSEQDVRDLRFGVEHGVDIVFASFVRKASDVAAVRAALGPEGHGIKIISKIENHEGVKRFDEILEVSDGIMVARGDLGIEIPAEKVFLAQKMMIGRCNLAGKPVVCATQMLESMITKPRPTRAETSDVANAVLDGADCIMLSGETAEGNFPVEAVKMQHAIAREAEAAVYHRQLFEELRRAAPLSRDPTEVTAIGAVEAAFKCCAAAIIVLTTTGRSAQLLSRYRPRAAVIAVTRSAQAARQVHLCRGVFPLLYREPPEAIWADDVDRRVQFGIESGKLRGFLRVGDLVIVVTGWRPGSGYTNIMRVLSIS
Protocol text: PKR mutant assay (K410E), AC50, LDH/NADH-coupled, absorbance at 340 nm
Assay type: biochemical
Recorded conditions: Table 2; enzyme assay
Reported AC50 values for the following molecules.
Measured property: AC50

{"Molecule": "Cn1c2nc(C#N)sc2c2cnn(Cc3cccc4[nH]ncc34)c(=O)c21 [Compound 84]", "Experimental system": "PKR K410E (Homo sapiens, UniProt P30613, K410E)", "Observed result": "0.301 to 0.8 µM"}
{"Molecule": "CSc1nc2c(s1)c1cnn(Cc3cccc(S(N)(=O)=O)c3)c(=O)c1n2C [Compound 110]", "Experimental system": "PKR K410E (Homo sapiens, UniProt P30613, K410E)", "Observed result": "> 0.8 µM"}
{"Molecule": "COC(=O)C(C(=O)OC)c1nc2c(s1)c1cnn(Cc3cccc4[nH]ncc34)c(=O)c1n2C [Compound 113]", "Experimental system": "PKR K410E (Homo sapiens, UniProt P30613, K410E)", "Observed result": "> 0.8 µM"}

====

Experimental system: PKR R510Q (Homo sapiens, UniProt P30613, R510Q)
Sequence (P30613 whole entry R510Q): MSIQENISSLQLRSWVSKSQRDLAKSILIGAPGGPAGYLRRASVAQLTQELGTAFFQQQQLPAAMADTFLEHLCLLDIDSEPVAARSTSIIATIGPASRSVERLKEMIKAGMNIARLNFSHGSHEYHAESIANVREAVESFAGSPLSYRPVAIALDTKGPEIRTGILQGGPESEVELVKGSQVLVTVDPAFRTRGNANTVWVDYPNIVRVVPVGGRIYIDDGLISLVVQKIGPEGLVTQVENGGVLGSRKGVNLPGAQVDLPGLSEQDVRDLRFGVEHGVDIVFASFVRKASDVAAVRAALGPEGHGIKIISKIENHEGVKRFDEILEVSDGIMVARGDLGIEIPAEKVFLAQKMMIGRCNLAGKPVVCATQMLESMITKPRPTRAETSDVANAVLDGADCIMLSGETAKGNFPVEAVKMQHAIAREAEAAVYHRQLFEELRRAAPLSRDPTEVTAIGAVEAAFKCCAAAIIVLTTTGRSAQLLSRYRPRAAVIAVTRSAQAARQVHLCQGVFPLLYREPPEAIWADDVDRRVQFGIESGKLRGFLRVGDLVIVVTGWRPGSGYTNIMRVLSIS
Protocol text: PKR mutant assay (R510Q), AC50, LDH/NADH-coupled, absorbance at 340 nm
Type: biochemical
Recorded conditions: Table 2; enzyme assay; read-out: PK R510Q AC50
In this section, each of the compounds is paired with its reported AC50.

{"Compound": "COc1cccc(Cn2ncc3c4sc(C(C)=O)nc4n(C)c3c2=O)c1 [Compound 62]", "AC50": "< 300 nM"}
{"Compound": "Cc1nc2c(s1)c1cnn(CCCO)c(=O)c1n2C [Compound 46]", "AC50": "> 800 nM"}
{"Compound": "Cc1nc2c(s1)c1cnn(Cc3cc[nH]n3)c(=O)c1n2C [Compound 68]", "AC50": "< 300 nM"}
{"Compound": "COc1ccccc1Cn1ncc2c3sc(C)nc3n(C)c2c1=O [Compound 8]", "AC50": "301 to 800 nM"}
{"Compound": "COc1cccc(Cn2ncc3c4sc(C(F)c5ccccc5)nc4n(C)c3c2=O)c1 (stereo not shown) [Compound 12]", "AC50": "< 300 nM"}
{"Compound": "Cn1c2nc(C(O)c3cc[nH]n3)sc2c2cnn(Cc3cccc4[nH]ncc34)c(=O)c21 (stereo not shown) [Compound 148]", "AC50": "< 300 nM"}
{"Compound": "Cn1c2nc(Cc3cncnc3)sc2c2cnn(Cc3cccc4[nH]ncc34)c(=O)c21 [Compound 153]", "AC50": "> 800 nM"}
